# System Under Test: wild-type TAR RNA
# Test Protocol: Fluorescence polarization anisotropy (FPA) binding to fluorescein-labeled wild-type TAR RNA
# Set-up: species or system HIV-1
# Measurement Conditions: FPA, 20 mM KCl, fluorescein-tagged wild-type TAR RNA, room temperature; read-out: Kd wt TAR
# Protocol: β-Peptide and mutant β-peptide binding affinities to TAR RNA were measured by fluorescence anisotropy method on a PTI (Photon Technology International) fluorescence spectrophotometer. A T-format setup based on two emission channels was used. […] The anisotropy can be calculated from equation 1, [formula] • where III and I⊥ are fluorescence intensities observed when the emission polarizer is oriented parallel and perpendicular to the direction of the polarized excitation, respectively. […]
Outcome Measure: pKd
Field pKd (float): negative decimal logarithm of the concentration in molar.

Substance	pKd
β-peptide in which all arginine side chains have been replaced by lysine side chains (YGKKKKKQKKK; SEQ ID NO:2) [mut β-peptide 2]	7.80
N-Tyr-Gly-Arg-Lys-Lys-Arg-Arg-Gln-Arg-Arg-Arg [α-TatR 3, reference compound]	8.74

// moving on: another record for pKd
[Q] Look up pKd of β-amino acid oligomer (β-peptide) analogue of Tat 47-57 (YGRKKRRQRRR, SEQ ID NO:1) [wt β-peptide 1] and report it.
[A] 7.55
